Hey, just so you know, these numbers are from ChEMBL document CHEMBL1144670.

measuredTarget: Cannabinoid receptor 2 (Homo sapiens)
Sequence (P34972 whole entry): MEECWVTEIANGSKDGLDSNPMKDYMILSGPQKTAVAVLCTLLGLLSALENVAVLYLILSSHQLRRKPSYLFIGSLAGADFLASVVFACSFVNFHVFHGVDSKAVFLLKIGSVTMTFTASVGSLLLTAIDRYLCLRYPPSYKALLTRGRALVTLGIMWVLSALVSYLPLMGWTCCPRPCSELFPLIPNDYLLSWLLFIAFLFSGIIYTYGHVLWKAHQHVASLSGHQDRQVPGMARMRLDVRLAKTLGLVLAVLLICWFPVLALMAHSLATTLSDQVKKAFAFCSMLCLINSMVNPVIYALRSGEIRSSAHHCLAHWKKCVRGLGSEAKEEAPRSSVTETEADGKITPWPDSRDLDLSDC
Entries and their Ki

CC(C)(C)c1ccc([C@@H]2CCC[C@@H](O)C2)cc1 (relative stereo)
> 10 µM
CC(C)(C)c1ccc([C@H]2CCC[C@@H](O)C2)cc1 (relative stereo)
> 10 µM

Prompt: Request body: readout Ki, system Cannabinoid receptor 2 (Homo sapiens), query CC(C)(C)c1ccc([C@@H]2C[C@H](O)CC[C@H]2CCCO)cc1 (relative stereo) . Return the value.
Completion: > 10 µM

----------
Listed here: compounds with reported pKi for Cannabinoid receptor 1 (Rattus norvegicus, UniProt P20272).
Reminder that pKi means the negative base-10 logarithm of the concentration expressed in mol/L.

Look over these answered cases.
CCCCC(C)(C)c1ccc([C@@H]2CCC[C@@H](O)C2)cc1 (relative stereo)
5.76
CCCCCCCC(C)(C)c1ccc([C@@H]2CCC[C@@H](O)C2)cc1
6.71
CCCCCC(C)(C)c1ccc([C@@H]2CCC[C@@H](O)C2)cc1 (relative stereo)
5.99

Prompt: For the record CCCCCCCCC(C)(C)c1ccc([C@H]2CCC[C@@H](O)C2)cc1 (relative stereo) , what value of pKi is listed for Cannabinoid receptor 1 (Rattus norvegicus, UniProt P20272)?
Completion: 5.77

Prompt: Record: CCCCCCC(C)(C)c1ccc([C@@H]2CCC[C@@H](O)C2)cc1 (relative stereo)
Completion: 6.19

Prompt: One more compound: CCCCCC(C)(C)c1ccc([C@@H]2C[C@H](O)CC[C@H]2CCCO)cc1 (relative stereo)
Completion: 6.51

Prompt: CCCCCCCC(C)(C)c1ccc([C@H]2CCC[C@@H](O)C2)cc1 (relative stereo) , same question.
Completion: 6.10

Prompt: Try this compound too: CCCCCC(C)(C)c1ccc([C@H]2CCC[C@@H](O)C2)cc1 (relative stereo)
Completion: 5.68
